- Study system: PCP recognition sites (PCP receptor)
- Protocol description: [3H]TCP radioreceptor assay (binding to PCP recognition sites)
- Recorded conditions: rat whole brain membranes, approx. 1 nM [3H]TCP; mean of at least two determinations
Quantity name: Ki (nM)
Report the figure in nM without appending any unit label.

# count of solved cases: 4
Record CCOC1(OCC)C2c3ccccc3C([n+]3cnn(C)c32)C1(C)C (centres unmarked) . Reported Ki: 30

Looking up CCOC1(OCC)C2c3ccccc3C([n+]3ccsc32)C1(C)C (centres unmarked) [Example 1i, hydrate] , I found its Ki recorded as 6.1

Memo: CCOC1(OCC)C2c3c(OC)cccc3C([n+]3ccsc32)C1(C)C (centres unmarked) , reported Ki: 9.2

Sure, the documented Ki for c1ccc(CCCn2cc[n+]3c2C2c4ccccc4C3CC2(c2ccoc2)c2ccoc2)cc1 (centres unmarked) is 67.8

Now for another entry.
What the record says about Cn1cc[n+]2c1C1c3ccccc3C2CC1(c1ccccc1)c1ccccc1 (centres unmarked) : Ki is 13
